Below, each of the molecules is paired with its reported Rate of uptake inhibition (%) (1 µM) value.
- Test system: rat small-intestinal brush border membrane vesicles
- Procedure details: Inhibitory effect on 33PO4 uptake into rat small-intestinal brush border membrane vesicles (rapid filtration method)
- Type: biochemical, Wistar female rat
- Test context: 1 µM test compound; 33PO4 uptake into rat small-intestinal BBMVs, 60 seconds
Write the value in % as a bare number.

Record excerpt, results attached:
Molecule: Cc1cccc(CN2C(=O)C(C(=O)Nc3ccc(C(F)(F)F)cc3-c3cc(C(F)(F)F)ncn3)=C(O)[C@@]3(C)CCCN23)c1
Experimental target: rat small-intestinal brush border membrane vesicles
Rate of uptake inhibition (%) (1 µM): 88
--
Molecule: CCC12CCCCN1N(Cc1cccc(F)c1F)C(=O)C(C(=O)Nc1cc(C)oc1C(F)(F)F)=C2O (stereo not shown)
Experimental target: rat small-intestinal brush border membrane vesicles
Rate of uptake inhibition (%) (1 µM): 41
--
Molecule: Cc1nc(NC(=O)C2=C(O)C3(CCC3)N(C)N(Cc3cccc(F)c3F)C2=O)ccc1Br
Experimental target: rat small-intestinal brush border membrane vesicles
Rate of uptake inhibition (%) (1 µM): 52
--
Molecule: CSc1cc(-c2cc(C(F)(F)F)ccc2NC(=O)C2=C(O)[C@@]3(C)CCCN3N(Cc3cccc(F)c3F)C2=O)cnc1C#N
Experimental target: rat small-intestinal brush border membrane vesicles
Rate of uptake inhibition (%) (1 µM): 84
--
Molecule: C[C@]12CCCN1N(Cc1ccc(F)cc1F)C(=O)C(C(=O)Nc1cc(F)c(Br)c(F)c1)=C2O
Experimental target: rat small-intestinal brush border membrane vesicles
Rate of uptake inhibition (%) (1 µM): 88
--
Molecule: C#Cc1ccc(CN2C(=O)C(C(=O)Nc3ccc(C(F)(F)F)cc3-c3cc(C(F)(F)F)ncn3)=C(O)[C@@]3(C)CCCN23)c(F)c1F
Experimental target: rat small-intestinal brush border membrane vesicles
Rate of uptake inhibition (%) (1 µM): 71

Proceed to the following item.
Given the molecule "C[C@]12CCCN1N(Cc1cccc(F)c1F)C(=O)C(C(=O)Nc1ccc(C(F)(F)F)cc1-c1cnc(C#N)c([N+](=O)[O-])c1)=C2O" , what is its reported Rate of uptake inhibition (%) (1 µM)?
82
